- test_system: Albumin (Bos taurus) (UniProt P02769)
- Sequence (P02769 whole entry, looked up): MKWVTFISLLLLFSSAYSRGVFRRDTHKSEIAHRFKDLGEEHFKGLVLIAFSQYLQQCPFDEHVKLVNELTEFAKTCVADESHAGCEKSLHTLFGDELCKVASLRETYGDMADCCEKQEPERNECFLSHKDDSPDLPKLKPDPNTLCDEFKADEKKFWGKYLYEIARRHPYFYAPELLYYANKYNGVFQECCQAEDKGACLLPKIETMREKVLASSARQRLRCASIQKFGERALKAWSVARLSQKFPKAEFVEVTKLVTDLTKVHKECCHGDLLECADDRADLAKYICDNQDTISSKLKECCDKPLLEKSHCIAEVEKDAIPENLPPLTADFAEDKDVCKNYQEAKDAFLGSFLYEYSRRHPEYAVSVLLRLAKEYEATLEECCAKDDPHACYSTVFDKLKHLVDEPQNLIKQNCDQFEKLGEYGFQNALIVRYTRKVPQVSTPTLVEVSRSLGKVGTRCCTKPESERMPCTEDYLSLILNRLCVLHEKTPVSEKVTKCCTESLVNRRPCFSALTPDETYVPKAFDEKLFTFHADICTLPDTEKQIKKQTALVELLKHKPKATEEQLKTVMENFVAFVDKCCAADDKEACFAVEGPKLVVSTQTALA
- experiment: bovine serum albumin binders on microarray, profiling panel, artefact control for SMM control protein annotation, biochemical, small-molecule microarray, Alexa647 label, 635/667 nm fluorescence (AID 1118);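 further: score merges 667 nm emission intensity and signal-to-noise per printed compound spot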
- condition: BSA-A647 binding, fluorescence 635 nm, higher = more signal
measure: composite z-score
Enter a number only.

1. CCOC(=O)C=C1C[C@@H](c2cccc([N+](=O)[O-])c2)O[C@@H](c2cccc([N+](=O)[O-])c2)O1    0.817

Quickly give me recorded composite z-score for O=C1N(Cc2ccccc2)c2ccccc2C[C@@]12N=C(c1ccc(OCCCO)cc1)O[C@H]2c1ccccc1
0.542

Quickly give me recorded composite z-score for COC(=O)[C@H](Cc1ccccc1)N1CC(C)(OC)O[C@@H](Cc2ccccc2)[C@H]1/C=C/C1CC1 (stereo not given in full)
-0.266

Quickly give me recorded composite z-score for COc1ccc(-c2cc3c(c(CCc4ccccc4)n2)[Si](C(C)C)(C(C)C)O[C@H]3c2ccccc2)cn1
-0.425

Quickly give me recorded composite z-score for COCCOC(=O)N1C(=O)[C@@]2(c3cc(C#CCNC(N)=O)ccc31)[C@H](C(=O)Nc1nc3ccccc3s1)[C@H]1C(=O)O[C@H](c3ccccc3)[C@H](c3ccccc3)N1[C@@H]2c1ccc(O)cc1
-0.376

====

- experiment: P. aeruginosa biofilm formation inhibitors, primary screen, strain PAO1, LB-PBS medium, absorbance 600 nm (AID 1176)
- condition: P. aeruginosa PAO1 growth/biofilm, A600, 12 h; higher = more signal
Threshold check on z-score: at or above 1 gives Y, strictly below gives N.

Below are worked cases with known answers.
1. O=C1O[C@@H](c2ccccc2)[C@@H](c2ccccc2)N2[C@@H](c3ccc(OCCO)cc3)[C@]3(C(=O)Nc4ccc(C#CC5=CCCCC5)cc43)[C@@H](C(=O)Nc3nc4ccccc4s3)[C@H]12    Y
2. C=CC[C@]12N=C(c3ccc(OCCCO)cc3)O[C@H]1c1ccccc1N(CCC)C2=O    Y

Now, please, on to the next compound.
Could you tell me if the measured z-score of O=C1O[C@H](c2ccccc2)[C@H](c2ccccc2)N2[C@H]1[C@@H](C(=O)Nc1nc3ccccc3s1)[C@]1(C(=O)Nc3ccccc31)[C@H]2c1ccccc1OCCO reaches 1 or more?
Y

====

- experiment: A549 lung cancer cell viability effects, profiling panel, resazurin fluorescence, 24 h, PK04 Diversity Set (AID 1171)
- condition: higher = more signal, called active from +8 up or from −8 down
Below, each entry is listed with its recorded z-score.
Enter a number only.

// below: answered compounds
1. COc1ccc([Si](C)(C)[C@H]2[C@H](CC(=O)N3CCC[C@H]3CO)O[C@@]3(C(=O)N(Cc4cccc(N5CCCCC5=O)c4)c4ccccc43)[C@@H]2C)cc1    0.423
2. O=C1OCC=C[C@H]2OC34C=CCN(Cn5nnc6ccccc65)C(=O)[C@H]3N(CCO)C(=O)[C@@H]4[C@@H]12 (some centres undefined)    -0.822
3. COC(=O)[C@]1(Cc2ccccc2CN=[N+]=[N-])N=C(c2ccc(OCCCO)cc2)O[C@@H]1c1ccccc1N=[N+]=[N-]    -2.73

Quickly give me recorded z-score for COc1ccc([Si](C)(C)[C@@H]2[C@@H](CC(=O)N(CCO)Cc3ccccc3)O[C@]3(C(=O)N(Cc4cccc(I)c4)c4ccccc43)[C@H]2C)cc1
-2.97

Quickly give me recorded z-score for O=C1N(Cc2ccccc2)c2ccccc2C[C@@]12N=C(c1ccc(OCCCO)cc1)O[C@H]2c1ccccc1
-1.63

====

- experiment: splicing luciferase reporter signal modulators, primary screen, spliceosome inhibition project, cell-based, HEK293, splice +/- reporter (AID 1101);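 further: HEK293 cells carrying a splicing-competent luciferase reporter gene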
- condition: luminescence, 24 h, higher = more signal, called active from +8 up or from −8 down
measure: z-score
Enter a number only.

// below: answered compounds
1. C=CCC(OC(C)=O)[C@@H]1[C@@H](N(Cc2cccc3ccccc23)C(=O)c2ccc(C)cc2)c2cc(OCCCO)ccc2N1C(=O)Cc1ccc2ccccc2c1 (some centres undefined)    -1.86
2. COc1ccc([Si](C)(C)[C@H]2[C@H](CC(=O)N(CCO)Cc3ccccc3)O[C@@]3(C(=O)N(Cc4cccc(N5CCCCC5=O)c4)c4ccccc43)[C@@H]2C)cc1    -2.32

Quickly give me recorded z-score for CC(C)Cc1ccc(CN2CC[C@@H](NC(=O)c3ccccc3)C2)cc1
1.03

Quickly give me recorded z-score for O=C1C[C@@](C(=O)NCC(F)(F)F)(c2ccc([N+](=O)[O-])cc2)[C@@H](c2ccc(CO)cc2I)N1CC12CC3CC(CC(C3)C1)C2
-1.85

Quickly give me recorded z-score for COc1c(C)cc(-c2nc(-c3ccccc3)c3c(c2C)CO[Si]3(C(C)C)C(C)C)cc1C
-0.394

Quickly give me recorded z-score for CC1C2C(CCCO)=CC(C3C(=O)N(C)C(=O)C23)N1Cc1cccc(OC(F)(F)F)c1 (centres undefined)
-1.06

Quickly give me recorded z-score for COc1ccc(CCNC(=O)[C@@]2(C)c3ccccc3C(=O)N(Cc3ccc(OC(F)(F)F)cc3)[C@H]2c2ccc(CO)cc2)cc1
-0.383

Quickly give me recorded z-score for CC(C)(C)OC(=O)CC[C@@]1(C(N)=O)N=C(c2ccc(OCCCO)cc2)O[C@@H]1c1ccccc1CN=[N+]=[N-]
-0.169

====

- Test system: XIP peptide (Xip251-270) binding
- experiment: small-molecule binders of XIP peptide, primary screen, biochemical, small-molecule microarray, fluorescence 635/667 nm, 0.1 µg/mL protein (AID 1182)
- condition: fluorescent protein binding, 635 nm, higher = more signal, called active from +8 up or from −8 down
Below, each entry is listed with its recorded composite z-score.
Enter a number only.

// below: answered compounds
1. CC1CC/C=C\[C@H]2OC34C=CCN(CCN5CCOCC5)C(=O)[C@H]3N(C(CO)C(C)C)C(=O)[C@@H]4C2C(=O)O1 (some centres not stated)    0.287
2. COc1ccc(CCNC(=O)[C@@H]2c3ccccc3C(=O)N(Cc3cc(F)cc(C(F)(F)F)c3)[C@H]2c2ccc(CO)cc2)cc1    0.614
3. Cc1ccc(S[C@]2(C(=O)NCc3ccccc3)CC(=O)N(Cc3ccccc3C(F)(F)F)[C@@H]2c2ccc(CO)cc2I)cc1    0.404
4. C=CCC(OC(C)=O)[C@@H]1[C@@H](N(Cc2cccc3ccccc23)C(=O)c2ccc(C)cc2)c2cc(OCCCO)ccc2N1C(=O)Cc1ccc2ccccc2c1 (some centres not stated)    -0.929
5. CC1(C)OB(/C=C\CC(OC(=O)c2ccncc2)c2ccccc2)OC1(C)C (configuration not stated)    0.258
6. C=CCNC(=O)[C@@H]1[C@H]2C(=O)O[C@H](c3ccccc3)[C@H](c3ccccc3)N2[C@H](c2ccc(O)cc2)[C@@]12C(=O)Nc1ccc(C#CC3=CCCCC3)cc12    1.79

Please turn your attention to the following entry.
Write down measured composite z-score (XIP peptide (Xip251-270) binding) for this compound. CCCCCN1CC=CC23O[C@@H]4/C=C\CCCOC(=O)C4[C@H]2C(=O)N(CCCCCO)[C@@H]3C1=O (some centres not stated)
0.388

====

- test_system: Pro-neuregulin-1, membrane-bound isoform (Homo sapiens) (UniProt Q02297)
- Sequence (Q02297 whole entry, looked up, canonical isoform): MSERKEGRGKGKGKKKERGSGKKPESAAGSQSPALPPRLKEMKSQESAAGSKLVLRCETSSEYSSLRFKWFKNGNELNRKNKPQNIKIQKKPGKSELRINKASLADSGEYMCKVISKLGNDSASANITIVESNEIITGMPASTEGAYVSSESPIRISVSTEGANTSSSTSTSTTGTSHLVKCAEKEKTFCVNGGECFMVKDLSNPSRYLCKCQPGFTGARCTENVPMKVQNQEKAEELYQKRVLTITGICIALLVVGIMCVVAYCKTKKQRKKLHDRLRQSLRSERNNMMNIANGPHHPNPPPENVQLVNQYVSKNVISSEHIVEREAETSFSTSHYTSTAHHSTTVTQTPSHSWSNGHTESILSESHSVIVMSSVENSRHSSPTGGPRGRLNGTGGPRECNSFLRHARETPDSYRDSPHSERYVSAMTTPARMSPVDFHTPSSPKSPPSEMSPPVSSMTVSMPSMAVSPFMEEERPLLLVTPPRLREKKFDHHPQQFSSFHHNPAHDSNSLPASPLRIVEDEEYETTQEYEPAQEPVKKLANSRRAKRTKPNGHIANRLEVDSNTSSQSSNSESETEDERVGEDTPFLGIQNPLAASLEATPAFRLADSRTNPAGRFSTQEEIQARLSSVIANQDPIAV
- experiment: NRG1 binders on small-molecule microarrays, primary screen, psychiatric disease protein project, biochemical, small-molecule microarray, fluorescence 635/667 (AID 1075);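 further: score combines 667 nm spot fluorescence with signal to noise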
- condition: NRG1 binding, 635 nm fluorescence, higher = more signal
measure: composite z-score
Enter a number only.

// below: answered compounds
1. NCCCCCCNC(=O)[C@@H]1C[C@@H]2C(=O)NCC(=O)N2[C@@H]1c1cccc(OCCO)c1    0.982
2. O=C1NC(=O)C2C1C=CC(C(O)C1CCCCC1)N2Nc1ccccn1 (stereo not given)    1.37
3. COCCOC(=O)N1C(=O)[C@@]2(c3cc(C#CCC(C(=O)OC)C(=O)OC)ccc31)[C@H](C(N)=O)[C@H]1C(=O)O[C@H](c3ccccc3)[C@H](c3ccccc3)N1[C@@H]2c1ccccc1OCCO    0.555
4. CN1C(=O)C2C=CC(C(O)c3cccs3)N(N(c3ccccc3)c3ccccc3)C2C1=O (stereo not given)    1.19

Quickly give me recorded composite z-score for C=C(C(=O)CC[C@@H](OC(=O)c1cccnc1)c1cccc(OCCO)c1)C(C)C
-0.145

Quickly give me recorded composite z-score for [N-]=[N+]=Nc1ccccc1C[C@@]1(C(=O)NCc2ccccc2)N=C(c2ccc(OCCCO)cc2)O[C@@H]1c1ccccc1
0.794

Quickly give me recorded composite z-score for C=CC[C@H](OC(=O)Nc1ccc(SC)cc1)c1ccc(O)c(F)c1
0.659

Quickly give me recorded composite z-score for C[C@]12C(=O)N(CCO)[C@@H]3C(=O)N(c4ccc(Cl)cc4)CC=CC31O[C@@H]1/C=C\CCCOC(=O)C12 (stereo not given in full)
1.12

Quickly give me recorded composite z-score for C=C(CCCC)/C(=C/C[C@@H](OC(C)=O)c1cccc(OCCO)c1)c1cc(C(=O)OC)ccc1OC
0.361
